I'd be grateful if you could share measured MIC for these entries.
System: Pseudomonas aeruginosa UCLA 4184
Experiment: MIC, agar dilution method, pH 7.2
Format: cell-based
Settings: UCLA4184; pH 7.2; Pseudomonas aeruginosa UCLA 4184; read-out: Minimum inhibition concentration (MIC)
Procedure: Measurement was carried out according to the agar dilution method, using a medium of pH 8.0, or the Japanese Antibiotic Medicament Standard, using a medium of pH 7.2 Units are in mcg/ml.
Give bare numbers, in µg/mL.

Previously resolved entries follow.
CO[C@H]1[C@@H](O)[C@H](N)[C@@H](O[C@H]2O[C@H]([C@H](C)N)CC[C@H]2N)[C@H](O)[C@@H]1N(C)C[C@@H](O)CCN
25
CO[C@H]1[C@@H](O)[C@H](N)[C@@H](O[C@H]2O[C@H]([C@H](C)N)CC[C@H]2N)[C@H](O)[C@@H]1N(C)C(=O)CNC(N)=O [Compound 3, 4-N-hydantoylfortimicin B, reference compound]
50
CNCC[C@H](O)CN(C)[C@H]1[C@@H](O)[C@H](O[C@H]2O[C@H]([C@H](C)N)CC[C@H]2N)[C@@H](N)[C@H](O)[C@@H]1OC
50
CO[C@H]1[C@@H](O)[C@H](N)[C@@H](O[C@H]2O[C@H]([C@H](C)N)CC[C@H]2N)[C@H](O)[C@@H]1N(C)CCN
12.5
CO[C@H]1[C@@H](O)[C@H](N)[C@@H](O[C@H]2O[C@H]([C@H](C)N)CC[C@H]2N)[C@H](O)[C@@H]1N(C)C(=O)CO
100

Here is the next item to consider.
// query Note MIC for the compound shown: CO[C@H]1[C@@H](O)[C@H](N)[C@@H](O[C@H]2O[C@H]([C@H](C)N)CC[C@H]2N)[C@H](O)[C@@H]1N(C)CC(O)CCN (stereo partly shown)
// result 25

###

System: Shigella sonnei KY4281 ATCC9290
Test: MIC, agar dilution method, pH 8.0
Format: cell-based
Details: ATCC9290; pH 8.0; Shigella sonnei KY4281; read-out: Minimum inhibition concentration (MIC), SS
endpointName: MIC (µg/mL)
Numbers only, in µg/mL.

Previously resolved entries follow.
CO[C@H]1[C@@H](O)[C@H](N)[C@@H](O[C@H]2O[C@H]([C@H](C)N)CC[C@H]2N)[C@H](O)[C@@H]1N(C)C[C@@H](O)CN [Compound 31]
2.5
CO[C@H]1[C@@H](O)[C@H](N)[C@@H](O[C@H]2O[C@H]([C@H](C)N)CC[C@H]2N)[C@H](O)[C@@H]1N(C)CCCCN [Compound 21, 4-N-(4-aminobutyl)fortimicin B]
2.5
CCCCCN(C)[C@H]1[C@@H](O)[C@H](O[C@H]2O[C@H]([C@H](C)N)CC[C@H]2N)[C@@H](N)[C@H](O)[C@@H]1OC [Compound 19, 4-N-(n-pentyl)fortimicin B]
100
CNCCN(C)[C@H]1[C@@H](O)[C@H](O[C@H]2O[C@H]([C@H](C)N)CC[C@H]2N)[C@@H](N)[C@H](O)[C@@H]1OC [Compound 26, 4-N-(2-methylaminoethyl)fortimicin B]
5
CO[C@H]1[C@@H](O)[C@H](N)[C@@H](O[C@H]2O[C@H]([C@H](C)N)CC[C@H]2N)[C@H](O)[C@@H]1N(C)CCNCCN [Compound 25]
5

Below is a list of molecules. For each, state its recorded MIC.
1. CNCCC(O)CN(C)[C@H]1[C@@H](O)[C@H](O[C@H]2O[C@H]([C@H](C)N)CC[C@H]2N)[C@@H](N)[C@H](O)[C@@H]1OC (stereo partly shown) [Compound 30]
2. CO[C@H]1[C@@H](O)[C@H](N)[C@@H](O[C@H]2O[C@H]([C@H](C)N)CC[C@H]2N)[C@H](O)[C@@H]1N(C)CCCCCN [Compound 22, 4-N-(5-aminopentyl)fortimicin B]
3. CO[C@H]1[C@@H](O)[C@H](N)[C@@H](O[C@H]2O[C@H]([C@H](C)N)CC[C@H]2N)[C@H](O)[C@@H]1N(C)CCO [Compound 24, 4-N-(2-hydroxyethyl)fortimicin B]
4. CCCN(C)[C@H]1[C@@H](O)[C@H](O[C@H]2O[C@H]([C@H](C)N)CC[C@H]2N)[C@@H](N)[C@H](O)[C@@H]1OC [Compound 17, 4-N-(n-propyl)fortimicin B]

// result
1. 0.63
2. 5
3. 10
4. 12.5

// query Note MIC for the molecule shown: CO[C@H]1[C@@H](O)[C@H](N)[C@@H](O[C@H]2O[C@H]([C@H](C)N)CC[C@H]2N)[C@H](O)[C@@H]1N(C)C(C)=O [Compound 5, 4-N-acetylfortimicin B]
// result 50

###

I'd be grateful if you could share measured MIC for these entries.
System: Bacillus subtilis KY4273
Experiment: MIC, agar dilution method, pH 8.0
Format: cell-based
Conditions: pH 8.0; Bacillus subtilis KY4273; read-out: Minimum inhibition concentration (MIC), BS
Answers are plain numbers, in µg/mL.

CO[C@H]1[C@@H](O)[C@H](N)[C@@H](O[C@H]2O[C@H]([C@H](C)N)CC[C@H]2N)[C@H](O)[C@@H]1N(C)C(=O)CN [Compound 2, 4-N-glycylfortimicin B, reference compound]
0.04

Here is the next item to consider.
// query Note MIC for the compound shown: CO[C@H]1[C@@H](O)[C@H](N)[C@@H](O[C@H]2O[C@H]([C@H](C)N)CC[C@H]2N)[C@H](O)[C@@H]1N(C)C(=O)CNC(=O)CN
// result 0.32

###

This document collects MIC values reported for Escherichia coli R18 KY8321.

CO[C@H]1[C@@H](O)[C@H](N)[C@@H](O[C@H]2O[C@H]([C@H](C)N)CC[C@H]2N)[C@H](O)[C@@H]1N(C)CCN [Compound 15, 4-N-(2-aminoethyl)fortimicin B]
3.12 µg/mL
CN[C@H]1[C@@H](O)[C@H](O[C@H]2O[C@H]([C@H](C)N)CC[C@H]2N)[C@@H](N)[C@H](O)[C@@H]1OC [Compound 1, fortimicin B]
> 100 µg/mL
CO[C@H]1[C@@H](O)[C@H](N)[C@@H](O[C@H]2O[C@H]([C@H](C)N)CC[C@H]2N)[C@H](O)[C@@H]1N(C)CC(O)CCN (some centres unmarked) [Compound 29]
12.5 µg/mL
CO[C@H]1[C@@H](O)[C@H](N)[C@@H](O[C@H]2O[C@H]([C@H](C)N)CC[C@H]2N)[C@H](O)[C@@H]1N(C)C(=O)CN [Compound 2, 4-N-glycylfortimicin B, reference compound]
3.12 µg/mL

Here is the next item to consider.
// query Note MIC for the compound shown: CO[C@H]1[C@@H](O)[C@H](N)[C@@H](O[C@H]2O[C@H]([C@H](C)N)CC[C@H]2N)[C@H](O)[C@@H]1N(C)C(=O)CO [Compound 4, 4-N-glycolylfortimicin B]
// result 6.25 µg/mL

###

Test system: Pseudomonas aeruginosa R9 KY8516
Experiment: MIC, agar dilution method, pH 7.2
Format: cell-based
Conditions: R9KY8516, pH 7.2, P. aeruginosa R9 KY8516, 3**: kanamycin, producing acetyltransferase, read-out: Minimum inhibition concentration (MIC)
I'd be grateful if you could share measured MIC for these entries.
Give bare numbers, in µg/mL.

Previously resolved entries follow.
CO[C@H]1[C@@H](O)[C@H](N)[C@@H](O[C@H]2O[C@H]([C@H](C)N)CC[C@H]2N)[C@H](O)[C@@H]1N(C)C[C@@H](O)CCN
25
CO[C@H]1[C@@H](O)[C@H](N)[C@@H](O[C@H]2O[C@H]([C@H](C)N)CC[C@H]2N)[C@H](O)[C@@H]1N(C)CCN
25
CO[C@H]1[C@@H](O)[C@H](N)[C@@H](O[C@H]2O[C@H]([C@H](C)N)CC[C@H]2N)[C@H](O)[C@@H]1N(C)CC(O)CCN (stereo partly shown)
50

Below is a list of compounds. For each, state its recorded MIC.
1. CNCC[C@H](O)CN(C)[C@H]1[C@@H](O)[C@H](O[C@H]2O[C@H]([C@H](C)N)CC[C@H]2N)[C@@H](N)[C@H](O)[C@@H]1OC
2. CO[C@H]1[C@@H](O)[C@H](N)[C@@H](O[C@H]2O[C@H]([C@H](C)N)CC[C@H]2N)[C@H](O)[C@@H]1N(C)C(=O)CO

// result
50
100

###

Test system: Proteus vulgaris KY4277 ATCC6897
Assay: MIC, agar dilution method, pH 8.0
Assay type: cell-based
Details: ATCC6897; pH 8.0; Proteus vulgaris KY4277; read-out: Minimum inhibition concentration (MIC), PV
I'd be grateful if you could share measured MIC for these entries.

CO[C@H]1[C@@H](O)[C@H](N)[C@@H](O[C@H]2O[C@H]([C@H](C)N)CC[C@H]2N)[C@H](O)[C@@H]1N(C)CCCCCN
10 µg/mL
CO[C@H]1[C@@H](O)[C@H](N)[C@@H](O[C@H]2O[C@H]([C@H](C)N)CC[C@H]2N)[C@H](O)[C@@H]1N(C)CCCCCCN
> 80 µg/mL
CO[C@H]1[C@@H](O)[C@H](N)[C@@H](O[C@H]2O[C@H]([C@H](C)N)CC[C@H]2N)[C@H](O)[C@@H]1N(C)C(=O)CO
2.5 µg/mL
CO[C@H]1[C@@H](O)[C@H](N)[C@@H](O[C@H]2O[C@H]([C@H](C)N)CC[C@H]2N)[C@H](O)[C@@H]1N(C)C(C)=O
100 µg/mL
CO[C@H]1[C@@H](O)[C@H](N)[C@@H](O[C@H]2O[C@H]([C@H](C)N)CC[C@H]2N)[C@H](O)[C@@H]1N(C)CC(O)CCN (stereo partly shown)
0.32 µg/mL

Below is a list of compounds. For each, state its recorded MIC.
1. CO[C@H]1[C@@H](O)[C@H](N)[C@@H](O[C@H]2O[C@H]([C@H](C)N)CC[C@H]2N)[C@H](O)[C@@H]1N(C)C(=O)CNC(=O)CN
2. CO[C@H]1[C@@H](O)[C@H](N)[C@@H](O[C@H]2O[C@H]([C@H](C)N)CC[C@H]2N)[C@H](O)[C@@H]1N(C)C(=O)CCN
3. CN[C@H]1[C@@H](O)[C@H](O[C@H]2O[C@H]([C@H](C)N)CC[C@H]2N)[C@@H](N)[C@H](O)[C@@H]1OC
4. CO[C@H]1[C@@H](O)[C@H](N)[C@@H](O[C@H]2O[C@H]([C@H](C)N)CC[C@H]2N)[C@H](O)[C@@H]1N(C)C(=O)CCCN

// result
2.5 µg/mL
0.63 µg/mL
25 µg/mL
1.25 µg/mL

// query Note MIC for the compound shown: CO[C@H]1[C@@H](O)[C@H](N)[C@@H](O[C@H]2O[C@H]([C@H](C)N)CC[C@H]2N)[C@H](O)[C@@H]1N(C)CCO [Compound 24, 4-N-(2-hydroxyethyl)fortimicin B]
// result 10 µg/mL
